System: Enterococcus faecalis
methodNotes: Antibacterial activity against Enterococcus faecalis 10-5 after 18 to 24 hrs by NCCLS method
Format: functional
For each entry below, report its MIC value.
Give just the numeric value; µg/mL need not be written.

Ask: Which MIC is reported for this compound? O=C(O)c1cn(C2CC2)c2cc(N3CCNCC3)c(F)cc2c1=O [CIPROFLOXACIN]
Reply: 8

Ask: What about this compound? O=C(O)c1cn(C2CC2)c2cc(N3CCN(Cc4cc5c(cc4[N+](=O)[O-])OCO5)CC3)c(F)cc2c1=O
Reply: 32

Ask: What about this compound? COc1cc(CN2CCN(c3cc4c(cc3F)c(=O)c(C(=O)O)cn4C3CC3)CC2)cc(OC)c1OC
Reply: 8

Ask: What about this compound? COc1cccc(CN2CCN(c3cc4c(cc3F)c(=O)c(C(=O)O)cn4C3CC3)CC2)c1OC
Reply: 8

Ask: What about this compound? COc1ccc(OC)c(CN2CCN(c3cc4c(cc3F)c(=O)c(C(=O)O)cn4C3CC3)CC2)c1
Reply: 16

Ask: What about this compound? COc1cc(CN2CCN(c3cc4c(cc3F)c(=O)c(C(=O)O)cn4C3CC3)CC2)ccc1OCc1ccccc1
Reply: 32

Ask: What about this compound? COc1ccc(CN2CCN(c3cc4c(cc3F)c(=O)c(C(=O)O)cn4C3CC3)CC2)c(OC)c1OC
Reply: 16

* * *

For each entry below, report its MIC value.
Tested on: Enterococcus faecalis
methodNotes: Antibacterial activity against Enterococcus faecalis 10-5 after 18 to 24 hrs by NCCLS method
Assay type: functional

Ask: Which MIC is reported for this compound? O=C(O)c1cn(C2CC2)c2cc(N3CCN(Cc4ccc(OCc5ccccc5)cc4)CC3)c(F)cc2c1=O
Reply: 8 µg/mL

Ask: What about this compound? O=C(O)c1cn(C2CC2)c2cc(N3CCN(Cc4ccc5c(c4)OCO5)CC3)c(F)cc2c1=O
Reply: 16 µg/mL

Ask: What about this compound? O=C(O)c1cn(C2CC2)c2cc(N3CCN(Cc4ccc5c(c4)OCCO5)CC3)c(F)cc2c1=O
Reply: 4 µg/mL

Ask: What about this compound? COc1ccc(CN2CCN(c3cc4c(cc3F)c(=O)c(C(=O)O)cn4C3CC3)CC2)cc1OC
Reply: 8 µg/mL

Ask: What about this compound? COc1ccc(CN2CCN(c3cc4c(cc3F)c(=O)c(C(=O)O)cn4C3CC3)CC2)cc1
Reply: 4 µg/mL

* * *

Test system: Pseudomonas aeruginosa
methodNotes: Antibacterial activity against Pseudomonas aeruginosa 10-12 after 18 to 24 hrs by NCCLS method
Assay type: functional
# note: boundary value 30 µg/mL maps to No; MIC below it maps to Yes

Ask: Strictly below 30 µg/mL in MIC? COc1ccc(CN2CCN(c3cc4c(cc3F)c(=O)c(C(=O)O)cn4C3CC3)CC2)c(Cl)c1OC
Reply: No

Ask: What about this molecule? COc1cc(CN2CCN(c3cc4c(cc3F)c(=O)c(C(=O)O)cn4C3CC3)CC2)c([N+](=O)[O-])cc1OC
Reply: Yes

Ask: What about this molecule? O=C(O)c1cn(C2CC2)c2cc(N3CCN(Cc4ccc(OCc5ccccc5)cc4)CC3)c(F)cc2c1=O
Reply: No

Ask: What about this molecule? COc1cc(CN2CCN(c3cc4c(cc3F)c(=O)c(C(=O)O)cn4C3CC3)CC2)cc(OC)c1
Reply: No

Ask: What about this molecule? COc1ccc(CN2CCN(c3cc4c(cc3F)c(=O)c(C(=O)O)cn4C3CC3)CC2)cc1
Reply: Yes

Ask: What about this molecule? COc1ccc(CN2CCN(c3cc4c(cc3F)c(=O)c(C(=O)O)cn4C3CC3)CC2)cc1OC
Reply: No

Ask: What about this molecule? COc1cccc(CN2CCN(c3cc4c(cc3F)c(=O)c(C(=O)O)cn4C3CC3)CC2)c1OC
Reply: No

Ask: What about this molecule? COc1ccc(CN2CCN(c3cc4c(cc3F)c(=O)c(C(=O)O)cn4C3CC3)CC2)c(OC)c1OC
Reply: No

Ask: What about this molecule? O=C(O)c1cn(C2CC2)c2cc(N3CCN(Cc4cc5c(cc4[N+](=O)[O-])OCO5)CC3)c(F)cc2c1=O
Reply: Yes

Ask: What about this molecule? O=C(O)c1cn(C2CC2)c2cc(N3CCN(Cc4ccc5c(c4)OCCO5)CC3)c(F)cc2c1=O
Reply: Yes

Ask: What about this molecule? COc1cc(Br)c(CN2CCN(c3cc4c(cc3F)c(=O)c(C(=O)O)cn4C3CC3)CC2)cc1OC
Reply: Yes

Ask: What about this molecule? COc1ccc(OC)c(CN2CCN(c3cc4c(cc3F)c(=O)c(C(=O)O)cn4C3CC3)CC2)c1
Reply: Yes

Ask: What about this molecule? O=C(O)c1cn(C2CC2)c2cc(N3CCN(Cc4ccccc4)CC3)c(F)cc2c1=O
Reply: Yes

Ask: What about this molecule? COc1cc(CN2CCN(c3cc4c(cc3F)c(=O)c(C(=O)O)cn4C3CC3)CC2)ccc1OCc1ccccc1
Reply: No

Ask: What about this molecule? COc1cc(CN2CCN(c3cc4c(cc3F)c(=O)c(C(=O)O)cn4C3CC3)CC2)cc(OC)c1OC
Reply: No

Ask: What about this molecule? O=C(O)c1cn(C2CC2)c2cc(N3CCN(Cc4ccc5c(c4)OCO5)CC3)c(F)cc2c1=O
Reply: No
